The measured values listed here are drawn from ChEMBL document CHEMBL5634148.

assay: Toxicity in po-dosed Wistar rat measured for 14 days by H and E staining based analysis; settings: in vivo, time 14 day
observable: LD50 at 336 h

IN: # LD50 at 336 h lookup, item C=C[C@]1(C)C[C@@H](OC(=O)CSc2ncnc(N(C)C)n2)[C@]2(C)[C@H](C)CC[C@]3(CCC(=O)[C@H]32)[C@@H](C)[C@@H]1O
OUT: > 2000 mg/kg

###

experiment: Cytotoxicity against human HepG2 cells assessed as cell viability incubated for 6 hrs by CCK8 assay; format: toxicity, cell-based
observable: CC50 at 6 h (µM)
Numbers only, in µM.

IN: What value of CC50 at 6 h has been reported for the following compound? C=C[C@]1(C)C[C@@H](OC(=O)CSc2ncnc(N(C)C)n2)[C@]2(C)[C@H](C)CC[C@]3(CCC(=O)[C@H]32)[C@@H](C)[C@@H]1O
OUT: 84.6
